- Test system: HeLa-APL
- protocol-details: Inhibition of cell growth by colorimetric SRB assay, HELA-APL
- Assay type: cell-based
- conditions-used: Homo sapiens; HELA-APL; 48 hours exposure; total growth inhibition; read-out: TGI
measured-property: IC (total growth inhibition)
Please make sure the unit comes right after the number.

Solved entries:
* C/C=C\[C@H](C)[C@H]1OC1(C)[C@@H](O)[C@@H](CO)C(=O)[C@H](CO)[C@H](O)CC(=O)CC (some centres unmarked) [3b + 4b] | 26.8 µM
* C/C=C\[C@H](C)[C@H]1O[C@@]1(C)[C@@H](O)[C@@H](CO)C(=O)[C@H](CO)[C@@H](O)CC(=O)CC [3a + 4a] | 0.983 µM
* C/C=C\[C@H](C)[C@H]1O[C@@]1(C)[C@@H](O)[C@@H](CO)C(=O)[C@@H](CO)[C@@H](O)CC(=O)CC [3c + 4c] | 8.67 µM

Given C/C=C\[C@H](C)[C@H]1O[C@@]1(C)[C@@H](O)[C@@H](COC(C)=O)C(=O)[C@H](CO)[C@@H](O)CC(=O)CC [Compound 47] , respond with its IC (total growth inhibition).
0.591 µM

Please report the measured IC (total growth inhibition) for C/C=C\[C@H](C)[C@H]1OC1(C)[C@@H](O)[C@@H](CO)C(=O)[C@@H](CO)[C@H](O)CC(=O)CC (some centres unmarked) [3d + 4d]
26.8 µM

====

- System: HeLa
- protocol-details: Inhibition of cell growth by colorimetric SRB assay, HELA
- Format: cell-based
- conditions-used: Homo sapiens; HELA; 48 hours exposure; total growth inhibition; read-out: TGI
# binarize IC (total growth inhibition): threshold 8 µM inclusive, high side Condition met, low side Condition not met

Below are worked cases with known answers.
• C/C=C\[C@H](C)[C@H]1OC1(C)[C@@H](O[Si](C)(C)C(C)(C)C)[C@@H](CO[Si](C)(C)C(C)(C)C)C(=O)[C@@H](CO[Si](C)(C)C(C)(C)C)[C@H](CC(=O)CC)O[Si](C)(C)C(C)(C)C (some centres unmarked) [Compound 30a] = Condition met
• C/C=C\[C@H](C)[C@H]1OC1(C)[C@@H](O[Si](C)(C)C(C)(C)C)[C@@H](COC(C)=O)C(=O)[C@H](CO)[C@H](O)CC(=O)CC (some centres unmarked) [Compound 43] = Condition met
• C/C=C\[C@H](C)[C@H]1OC1(C)[C@@H](O[Si](C)(C)C(C)(C)C)[C@@H](CO)C(=O)[C@H](CO)[C@H](O)CC(=O)CC (some centres unmarked) [20b + 20d] = Condition met
• C/C=C\[C@H](C)[C@H]1OC1(C)[C@@H](O[Si](C)(C)C(C)(C)C)[C@@H](CO)C(=O)[C@H](CO)[C@@H](O)CC(=O)CC (some centres unmarked) [20a + 20c] = Condition met
• C/C=C\[C@H](C)[C@H]1OC1(C)[C@@H](O)[C@@H](CO)C(=O)[C@H](CO)[C@H](O)CC(=O)CC (some centres unmarked) [3b + 4b] = Condition met

Does the reported IC (total growth inhibition) for C/C=C\[C@H](C)[C@H]1OC1(C)[C@@H](O[Si](C)(C)C(C)(C)C)[C@@H](CO[Si](C)(C)C(C)(C)C)C(=O)[C@@H](CO[Si](C)(C)C(C)(C)C)[C@@H](CC(=O)CC)O[Si](C)(C)C(C)(C)C (some centres unmarked) [Compound 30b] fall at or above the 8 µM mark?
Condition met

Hi, just wondering whether C=C(C(=O)[C@H](COC(C)=O)[C@H](O)C1(C)O[C@@H]1[C@@H](C)/C=C\C)[C@@H](O)CC(=O)CC (some centres unmarked) [Compound 1] shows IC (total growth inhibition) of 8 µM or higher.
Condition not met

Reported IC (total growth inhibition) at or above 8 µM? C/C=C\[C@H](C)[C@H]1OC1(C)[C@@H](O[Si](C)(C)C(C)(C)C)[C@@H](CO[Si](C)(C)C(C)(C)C)C(=O)[C@H](CO[Si](C)(C)C(C)(C)C)[C@@H](CC(=O)CC)O[Si](C)(C)C(C)(C)C (some centres unmarked) [Compound 19b]
Condition met

Record C/C=C\[C@H](C)[C@H]1O[C@@]1(C)[C@@H](O)[C@@H](CO)C(=O)[C@@H](CO)[C@@H](O)CC(=O)CC [3c + 4c] ; criterion: IC (total growth inhibition) no lower than 8 µM. Met?
Condition not met

Check this molecule for IC (total growth inhibition) at or above 8 µM: C/C=C\[C@H](C)[C@H]1O[C@@]1(C)[C@@H](O)[C@@H](COC(C)=O)C(=O)[C@H](CO)[C@@H](O)CC(=O)CC [Compound 47]
Condition not met

Please indicate if the recorded IC (total growth inhibition) for C/C=C\[C@H](C)[C@H]1OC1(C)[C@@H](O)[C@@H](CO)C(=O)[C@@H](CO)[C@H](O)CC(=O)CC (some centres unmarked) [3d + 4d] meets or exceeds 8 µM.
Condition met
